test: In vitro half-life at 37 degree Centigrade in phosphate-buffered saline(PBS; pH =7-7.2); type: ADME
I'd be grateful if you could share measured half-life for these entries.

Provide one value: measured half-life of Nc1nc(OCc2ccccc2)c2[nH]cnc2n1 [6-O-BENZYLGUANINE]
> 48 h

Answer with the recorded half-life of NC1=NC(OCc2cncs2)c2[nH]cnc2N1 (stereo not drawn) only.
> 48 h

Read off the recorded half-life for NC1=Nc2nc[nH]c2C(OCc2ccco2)N1 (stereo not drawn)
0.38 h
